Recorded IC50 values for a group of molecules are listed next.
Tested on: GM3
Test: GM3 Elisa assay
Type: cell-based
Details: Table 3 (title: IC 50 Values); read-out: IC50_uM_Mean

Record excerpt, results attached:
>  <MOLECULE>
CCCCCCCCCCCCCCCC(=O)N[C@H](CN(C)C(C)C)[C@H](O)c1ccc2c(c1)OCCO2

>  <IC50>
0.1 to 1 µM

$$$$
>  <MOLECULE>
COc1ccc(OCCC(=O)N[C@H](CN2CCCC2(C)C)[C@@H](O)c2ccc3c(c2)OCCO3)cc1

>  <IC50>
3 to 10 µM

$$$$
>  <MOLECULE>
O=C(CCCCCC(=O)c1ccc(F)cc1)N[C@H](CN1CC[C@@H](F)C1)[C@@H](O)c1ccc2c(c1)OCCO2

>  <IC50>
≤ 0.1 µM

$$$$
>  <MOLECULE>
COc1ccc(C(=O)CCCCCC(=O)N[C@H](CN2CCC[C@@H]2C)C(O)c2ccc3c(c2)OCCO3)cc1 (stereo partly drawn)

>  <IC50>
≤ 0.1 µM

$$$$
>  <MOLECULE>
CCCCCCCC(=O)N[C@H](CN1CCC[C@H]1C)C(O)c1ccc2c(c1)OCCO2 (stereo partly drawn)

>  <IC50>
3 to 10 µM

$$$$

IC50 on GM3 for O=C(Cc1ccc(OC(F)(F)F)cc1)N[C@H](CN1CCCC1)[C@H](O)c1ccc(Cl)s1 is 3 to 10 µM

IC50 on GM3 for O=C(CC(F)(F)F)N[C@H](CN1CCCC1)[C@@H](O)c1ccc2c(c1)OCCO2 is 3 to 10 µM

IC50 on GM3 for O=C(CCCCS(=O)(=O)C1CCCCC1)N[C@H](CN1CCCC1)[C@@H](O)c1ccc2c(c1)OCCO2 is 3 to 10 µM

---

Test system: GM3
Experiment: GM3 Elisa assay
Assay type: cell-based
Settings: Table 3 (title: IC 50 Values); read-out: IC50_uM_Mean
pIC50: −log10 of the molar value.
Recorded pIC50 values for a group of molecules are listed next.

Kindly note the recorded pIC50 for O=C(CCCOc1ccc(F)cc1)N[C@@H](CN1CC[C@H](O)C1)[C@H](O)c1ccc2c(c1)OCCO2 , which is ≥ 7.00

Kindly note the recorded pIC50 for COC[C@@H]1CCCN1C[C@@H](NC(=O)CCOc1ccc(OC)cc1)C(O)c1ccc2c(c1)OCCO2 (stereo partly shown) , which is 5.00 to 5.52

Kindly note the recorded pIC50 for COc1ccc(OCCC(=O)N[C@H](CN2CCC[C@@H]2C)C(O)c2ccc3c(c2)OCCO3)cc1 (stereo partly shown) , which is 6.00 to 7.00

Kindly note the recorded pIC50 for CCCCOc1ccc([C@H](O)[C@@H](CN2CC[C@@H](F)C2)NC(=O)CCCCCCCOC)cc1 , which is 6.00 to 7.00

---

Tested on: GM3
Test: GM3 Elisa assay
Format: cell-based
Conditions: Table 3 (title: IC 50 Values); read-out: IC50_uM_Mean
Recorded IC50 values for a group of molecules are listed next.

Record excerpt, results attached:
>  <MOLECULE>
CCCCCCCCCCCCCCCCC(=O)N[C@H](CN(C)Cc1ccco1)[C@H](O)c1ccc2c(c1)OCCO2

>  <TEST_RESULT>
3000 to 10000 nM

$$$$
>  <MOLECULE>
CCCCOc1ccc([C@@H](O)[C@@H](CN2CCC(F)C2)NC(=O)CCCCC(=O)c2ccc(F)cc2)cc1 (stereo partly shown)

>  <TEST_RESULT>
100 to 1000 nM

$$$$
>  <MOLECULE>
O=C(CCCCCC(=O)c1ccc(F)cc1)N[C@H](CN1CCCC1)[C@@H](O)c1ccc2c(c1)OCCO2

>  <TEST_RESULT>
≤ 100 nM

$$$$
>  <MOLECULE>
O=C(CCCCCC1CCOCC1)N[C@H](CN1CC[C@@H](F)C1)[C@@H](O)c1cccc(OCc2ccccc2)c1

>  <TEST_RESULT>
100 to 1000 nM

$$$$
>  <MOLECULE>
COc1ccc(C(=O)CCCCCC(=O)NC(CN2CC[C@@H](F)C2)[C@H](O)c2ccc3c(c2)OCCO3)cc1 (stereo partly shown)

>  <TEST_RESULT>
≤ 100 nM

$$$$
>  <MOLECULE>
O=C(CCCCCC1CCOCC1)N[C@H](CN1CCCC1)[C@@H](O)c1ccc2c(c1)OCCO2

>  <TEST_RESULT>
100 to 1000 nM

$$$$
>  <MOLECULE>
COc1ccc(C(=O)CCCCCC(=O)N[C@H](CN2C(C)CCC[C@H]2C)[C@@H](O)c2ccc3c(c2)OCCO3)cc1 (stereo partly shown)

>  <TEST_RESULT>
3000 to 10000 nM

$$$$
>  <MOLECULE>
CCNC[C@@H](NC(=O)CCCCCC(=O)c1ccc(OC)cc1)C(O)c1ccc2c(c1)OCCO2 (stereo partly shown)

>  <TEST_RESULT>
100 to 1000 nM

$$$$

Kindly note the recorded IC50 for O=C(N[C@H](CN1CCCC1)[C@@H](O)c1ccc2c(c1)OCCO2)C1(C(F)(F)F)CCC1 , which is 3000 to 10000 nM

Kindly note the recorded IC50 for COc1ccc(C(=O)CCCCCC(=O)N[C@H](CN2CCCC2(C)C)[C@@H](O)c2ccc3c(c2)OCCO3)cc1 , which is 1000 to 3000 nM

Kindly note the recorded IC50 for COC[C@H]1CCCN1C[C@@H](NC(=O)CCOc1ccc(OC)cc1)[C@@H](O)c1ccc2c(c1)OCCO2 , which is 3000 to 10000 nM

Kindly note the recorded IC50 for CCCCCCCC(=O)N[C@H](CN1CC[C@H](O)C1)[C@@H](O)c1ccc2c(c1)OCCO2 , which is ≤ 100 nM

Kindly note the recorded IC50 for CCCCOc1ccc([C@H](O)[C@@H](CN2CC[C@H](O)C2)NC(=O)CCCCCCCOC)cc1 , which is ≤ 100 nM

Kindly note the recorded IC50 for CCCCCCCC(=O)N[C@H](CN1CC[C@@H](O)C1)[C@@H](O)c1ccc2c(c1)OCCO2 , which is 1000 to 3000 nM

Kindly note the recorded IC50 for COc1ccc(OCCC(=O)N[C@H](CN2CCC[C@H]2C)C(O)c2ccc3c(c2)OCCO3)cc1 (stereo partly shown) , which is 1000 to 3000 nM

Kindly note the recorded IC50 for CCCCCCCC(=O)N[C@H](CN1CC(OCCC)C1)[C@H](O)c1ccc2c(c1)OCCO2 , which is 3000 to 10000 nM

Kindly note the recorded IC50 for COc1ccc(C(=O)CCCCCC(=O)N[C@H](CN2CC3CC3C2)[C@@H](O)c2ccc3c(c2)OCCO3)cc1 (stereo partly shown) , which is ≤ 100 nM

Kindly note the recorded IC50 for CC(O)(CCCCCC(=O)N[C@H](CN1CCCC1)[C@@H](O)c1ccc2c(c1)OCCO2)C1CCCC1 (stereo partly shown) , which is 100 to 1000 nM

Kindly note the recorded IC50 for CCCCCCCC(=O)N[C@H](CN1CCC[C@@H]1C)C(O)c1ccc2c(c1)OCCO2 (stereo partly shown) , which is 1000 to 3000 nM
